Data credit: PubChem BioAssay AID504834

Experiment: Primary qHTS for delayed death inhibitors of the malarial parasite plastid, 96 hour incubation
Details: P. falciparum luciferase reporter growth; series mostly up to 28.7 µM
About 22,000 (6.9%) of roughly 320,000 compounds were called active. Inconclusive results (about 27%) are left out. The call rests on the fitted dose curve; in most records, active means well fitted inhibition curve with a large enough effect; inconclusive means small, poorly fitted or top-dose-only effect, or another doubt; inactive means no such curve, though single readings can be large or run the other way. What follows is part of a selection rich in actives, with near analogues and random picks from the rest.
Assign a class; possible classes are y (active), n (inactive)

Answered cases to consult:
Compound: Cc1nn(CC(=O)NCC2CCCO2)c(=O)c2cc3ccccc3n12 (centres undefined)
Label Class: n
--
Compound: NS(=O)(=O)c1ccc(CCNS(=O)(=O)c2cccc3cccnc23)cc1
Label Class: y
--
Compound: O=C(Nc1ccccc1C(=O)Nc1ccncc1)c1ccc([N+](=O)[O-])cc1
Label Class: n

query: Record lookup: outcome of this test for COc1ccccc1NC(=O)CCC(=O)OC(C)C(=O)c1ccccc1 (centres undefined) ?
result: n

query: Record lookup: outcome of this test for CN(C)c1ccc(S(=O)(=O)NCC(=O)NCC2CCCCC2)cc1[N+](=O)[O-] ?
result: n

query: Record lookup: outcome of this test for CC(C)C[C@H](CO)Nc1nc(N(C)c2cccc(Cl)c2)c2ncn(C(C)C)c2n1 ?
result: y

* * *

Assay: Primary qHTS for delayed death inhibitors of the malarial parasite plastid, 96 hour incubation; further: potency means the concentration at half of the fitted maximal effect
Conditions: P. falciparum luciferase reporter growth; series mostly up to 28.7 µM
Among all 320,000 compounds or so, about 22,000 (6.9%) were called active. Roughly 27% stayed inconclusive and do not appear here. The sample as a whole holds a higher share of actives than the screen did.
Endpoint: Potency

Compound: Cc1ccc(S(=O)(=O)NC(=O)c2cccc(C)c2)cc1
Potency: inactive
--
Compound: COCCN(Cc1ccccc1)C(=O)Cc1ccc(S(=O)(=O)N2CCOCC2)s1
Potency: 9.28 µM (active)
--
Compound: O=C(NCCS(=O)(=O)NCc1ccc(Cl)cc1)c1ccccc1
Potency: inactive
--
Compound: CCC1(C)Cc2c(sc3[nH]c(=S)n(Cc4ccccc4)c(=O)c23)CO1 (configuration not stated)
Potency: inactive

query: Fill in reported Potency for this entry: COc1ccccc1N1CCN(C(=O)CCS(=O)(=O)c2ccc3c(c2)NC(=O)C(C)S3)CC1 (configuration not stated)
result: inactive

query: Fill in reported Potency for this entry: N/C(=N\OC(=O)/C=C/c1ccccc1)c1ccc(Br)cc1
result: inactive

query: Fill in reported Potency for this entry: CCOC(=O)N1CCC(NC(=O)Cc2cn(C)c3ccccc23)CC1
result: inactive

query: Fill in reported Potency for this entry: CCC1(C)Cc2c(sc3nc(SC)[nH]c(=O)c23)CO1 (configuration not stated)
result: 9.28 µM (active)

query: Fill in reported Potency for this entry: COC(=O)c1cc(NC(=O)c2cccnc2)ccc1N1CCOCC1
result: inactive

query: Fill in reported Potency for this entry: COC(=O)c1sc(N2CCN(Cc3ccccc3)CC2)nc1N
result: inactive

query: Fill in reported Potency for this entry: COc1ccc(N(CC(=O)Nc2cccc3ccccc23)S(C)(=O)=O)c(OC)c1
result: inactive

query: Fill in reported Potency for this entry: Cc1ccc(NC(=O)NNC(=O)c2sccc2-n2cccc2)cc1
result: inactive

query: Fill in reported Potency for this entry: CC(=O)N/C(=N/c1nc(C)cc(C)n1)Nc1ccc(F)cc1F
result: inactive

query: Fill in reported Potency for this entry: Brc1ccc2ncnc(NCc3cccnc3)c2c1
result: inactive

query: Fill in reported Potency for this entry: COc1cc([C@H](Cc2ccccc2)NC(C)=O)oc(=O)c1
result: 2.94 µM (active)

query: Fill in reported Potency for this entry: O=C(Cc1ccc(S(=O)(=O)N2CCOCC2)s1)NCCC(c1ccccc1)c1ccccc1
result: 7.38 µM (active)

query: Fill in reported Potency for this entry: Oc1ccccc1CNc1ncc(Br)cc1Br
result: 13.1 µM (active)
